Molecular target: CDK19 (Homo sapiens)
Construct: GST-CDK19; with Cyclin C
Assay: TR-FRET ligand displacement assay (Kinase Tracer […], Tb-anti-GST); also KINOMEscan […] inhibition at […]
Type: binding
pIC50: −log10 of the molar value.

smilesData | pIC50
O=C(/C=C/c1cnccc1-c1ccc(F)cc1)Nc1ccc(CCc2nnco2)cc1 | 7.21

====

Target: CDK19 (Homo sapiens, UniProt Q9BWU1)
Construct: GST-CDK19; with Cyclin C
Sequence (Q9BWU1 whole entry): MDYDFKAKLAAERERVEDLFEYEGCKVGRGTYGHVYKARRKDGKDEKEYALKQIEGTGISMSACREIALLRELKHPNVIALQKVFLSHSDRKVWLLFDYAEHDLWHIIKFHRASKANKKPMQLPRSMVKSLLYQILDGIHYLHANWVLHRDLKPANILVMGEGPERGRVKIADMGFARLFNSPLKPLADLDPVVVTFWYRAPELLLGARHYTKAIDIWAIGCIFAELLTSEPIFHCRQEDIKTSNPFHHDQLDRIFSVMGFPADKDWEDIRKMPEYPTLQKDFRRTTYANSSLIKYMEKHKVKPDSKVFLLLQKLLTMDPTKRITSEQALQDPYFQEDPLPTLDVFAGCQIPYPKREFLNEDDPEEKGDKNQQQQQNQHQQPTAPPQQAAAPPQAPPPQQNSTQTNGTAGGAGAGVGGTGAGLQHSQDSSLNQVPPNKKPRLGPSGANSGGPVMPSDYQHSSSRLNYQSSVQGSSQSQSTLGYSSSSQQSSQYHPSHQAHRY
Sequence (P24863 whole entry partner): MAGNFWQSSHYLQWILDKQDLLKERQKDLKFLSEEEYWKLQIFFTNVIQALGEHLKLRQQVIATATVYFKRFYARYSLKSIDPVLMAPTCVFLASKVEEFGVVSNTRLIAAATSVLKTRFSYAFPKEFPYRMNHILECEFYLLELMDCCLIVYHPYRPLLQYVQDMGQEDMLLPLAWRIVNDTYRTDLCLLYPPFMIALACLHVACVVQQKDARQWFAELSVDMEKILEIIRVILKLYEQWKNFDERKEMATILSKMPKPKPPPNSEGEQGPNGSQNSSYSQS
Assay: TR-FRET ligand displacement assay (Kinase Tracer […], Tb-anti-GST); also KINOMEscan […] inhibition at […]
Format: binding
pIC50: −log10 of the molar value.
outcomeMeasure: pIC50

smilesData | targetUnderTest | resultNumber
Cc1ncccc1Oc1sc(C(N)=O)c2c1-c1c(cnn1C)CC2 | CDK19 (Homo sapiens, UniProt Q9BWU1) | 8.72

Reference source: paper PMC5862592
